- TEST_SYSTEM: hACSL5 (Homo sapiens (Human))
- Sequence (Q9ULC5 whole entry): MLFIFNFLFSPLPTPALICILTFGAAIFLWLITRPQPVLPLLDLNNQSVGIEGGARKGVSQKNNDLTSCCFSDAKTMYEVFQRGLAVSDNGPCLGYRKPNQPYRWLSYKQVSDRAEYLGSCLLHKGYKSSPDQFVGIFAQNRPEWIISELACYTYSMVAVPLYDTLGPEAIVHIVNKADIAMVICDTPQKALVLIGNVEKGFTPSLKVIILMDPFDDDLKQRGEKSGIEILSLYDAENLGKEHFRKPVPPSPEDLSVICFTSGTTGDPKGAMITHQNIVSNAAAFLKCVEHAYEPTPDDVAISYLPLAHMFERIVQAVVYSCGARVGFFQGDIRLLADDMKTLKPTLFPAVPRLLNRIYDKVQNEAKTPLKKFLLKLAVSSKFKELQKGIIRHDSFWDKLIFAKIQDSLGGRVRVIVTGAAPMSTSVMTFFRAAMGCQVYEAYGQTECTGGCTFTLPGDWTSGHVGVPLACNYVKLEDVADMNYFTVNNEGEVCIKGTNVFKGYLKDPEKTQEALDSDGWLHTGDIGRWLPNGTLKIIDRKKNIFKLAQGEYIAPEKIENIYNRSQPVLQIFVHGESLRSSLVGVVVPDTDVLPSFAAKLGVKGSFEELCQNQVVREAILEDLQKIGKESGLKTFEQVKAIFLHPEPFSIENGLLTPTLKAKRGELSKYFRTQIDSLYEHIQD
- ASSAY_PROTOCOL: Cell-based assay (CBA) with B12FA in hACSL5-transfected Expi293F / FlpIn TRex293 cells
- MEASUREMENT_SETUP: hACSL5-expressing cells
ENDPOINT_NAME: IC50

These solved cases illustrate the format of a correct answer.
CC[C@@H](Oc1ccc(C(=O)NS(=O)(=O)c2cnc(OC3CCN(C)CC3)nc2)c(F)c1F)c1ccc(OCC2CC2)cn1 = > 500 nM
CC[C@@H](Oc1ccc(C(=O)NS(=O)(=O)c2ccc(O[C@@H]3C[C@H]4C[C@@H]3CN4)cc2)c(F)c1F)c1ccc(OCC2CC2)cn1 = > 500 nM
CC[C@@H](Oc1ccc(C(=O)NS(=O)(=O)N2CCN(C)CC2(C)C)c(F)c1F)c1ccc(Oc2ccccn2)cn1 = < 100 nM

Consider the following items and state reported IC50 for each.
1. CC[C@@H](Oc1ccc(C(=O)NS(=O)(=O)N2CCC(OC3CCN(C)CC3)CC2)c(F)c1F)c1ccc(OC2CC(OC)C2)cn1 (some centres unmarked)
2. CC[C@@H](Oc1ccc(C(=O)NS(=O)(=O)c2ccc(OCCN(C)C)cc2)cc1C(F)(F)F)c1ccc(Oc2ccccn2)cn1
3. CC[C@@H](Oc1ccc(C(=O)NS(=O)(=O)N2CCC(OC3CCN(C)CC3)CC2)cc1C(F)(F)F)c1ccc(OC2CC(OC)C2)cn1 (some centres unmarked)

Key:
1: 100 to 500 nM; 2: < 100 nM; 3: 100 to 500 nM

Provide IC50 for all items below, preserving their order.
1. C[C@@H](Oc1ccc(C(=O)NS(=O)(=O)c2ccc(OCCN(C)C)cc2)cc1C(F)(F)F)c1ccc(Oc2ccccn2)cn1
2. CC[C@@H](Oc1ccc(C(=O)NS(=O)(=O)c2ccc(OC3CCN(CCO)CC3)cc2)c(F)c1F)c1ccc(OCC2CC2)cn1
3. CC[C@@H](Oc1ccc(C(=O)NS(=O)(=O)N2CCN(CC)CC2)cc1C(F)(F)F)c1ccc(OCC2CC2)cn1

Key:
1: < 100 nM; 2: 100 to 500 nM; 3: < 100 nM

For each of the items listed, what is its IC50?
1. CC[C@@H](Oc1ccc(C(=O)NS(=O)(=O)c2ccc(OCCN(C)C)cc2)cc1C(F)(F)F)c1ccc(OC2CC(OC)C2)cn1 (some centres unmarked)
2. CC[C@@H](Oc1ccc(C(=O)NS(=O)(=O)N2CCN(CC)CC2)c(F)c1F)c1ccc(OCC2CC2)cn1
3. CC[C@@H](Oc1ccc(C(=O)NS(=O)(=O)N2CCN(CC(C)(C)F)CC2)c(F)c1F)c1ccc(Oc2ccccn2)cn1
4. CC[C@@H](Oc1ccc(C(=O)NS(=O)(=O)N2CCC(OC3CCN(CC(C)(C)O)CC3)CC2)c(F)c1F)c1ccc(OCC2CC2)cn1
5. CC[C@@H](Oc1ccc(C(=O)NS(=O)(=O)N2CCC(CN3CCN(CC)CC3)CC2)c(F)c1F)c1ccc(OCC2CC2)cn1
6. CC[C@@H](Oc1ccc(C(=O)NS(=O)(=O)N2C[C@@H]3C[C@H]2CN3C)c(F)c1F)c1ccc(OCC2CC2)cn1

Key:
100 to 500 nM
< 100 nM
< 100 nM
100 to 500 nM
> 500 nM
100 to 500 nM
